normalized growth overview
# experimentalProtocol: chemical genetic growth profiling, strain panel (AID 1159580);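 note: tested at 20 µM; growth read once vehicle control cultures reached saturation at 30 °C; 1 = growth at the plate median or of vehicle wells; lower values mean less growth of the strain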
# experimentalParameters: S. cerevisiae deletion strains, growth OD, locus YGL078C, strain dbp3, hits give low values
The whole screen tested about 5,500 compounds, of which about 2,000 (36%) were called active. Another 18% or so got no clear call; they are omitted. This is one part of the list.
measurementName: normalized growth

INSERT INTO measurements (compound, measurementname, reportedmeasurement) VALUES
  ('Nc1ccc(C(=O)O)cc1', 'normalized growth', 1),
  ('CC(=O)N[C@@H](Cc1c[nH]c2ccccc12)C(N)=O', 'normalized growth', 0.994),
  ('COc1ccccc1OCC(O)CO (stereo not given)', 'normalized growth', 1.02),
  ('CC(C)=CCCC(C)[C@@H]1CC[C@]2(C)C3=C(CC[C@@]12C)C1(C)CC[C@H](O)C(C)(C)C1CC3 (stereo not given in full)', 'normalized growth', 0.889),
  ('CC(=O)O[C@H]1CCC2(C)C3=C(CCC2C1(C)C)[C@@]1(C)CC[C@@H](C(C)CCC=C(C)C)[C@]1(C)CC3 (stereo not given in full)', 'normalized growth', 0.932),
  ('CCN(CC)CCOC(=O)C1(C2CCCCC2)CCCCC1', 'normalized growth', 0.983),
  ('CC(C)CC(NC(=O)OCC1c2ccccc2-c2ccccc21)C(=O)O (stereo not given)', 'normalized growth', 1),
  ('C[C@H]1c2cccc(O)c2C(O)=C2C(=O)[C@]3(O)C(O)=C(C(N)=O)C(=O)[C@@H](N(C)C)[C@@H]3[C@@H](O)[C@@H]21', 'normalized growth', 0.968),
  ('CC(C)c1ccc2c(c1)CCC1[C@](C)(CN)CCC[C@]21C (stereo not given in full)', 'normalized growth', 0.906),
  ('CC(C)CCCC(C)C1CCC2C3CC(=O)[C@H]4C[C@@H](O)CC[C@]4(C)C3CC[C@]12C (stereo not given in full)', 'normalized growth', 1.01),
  ('CN(C)c1ccc(O)c2c1C[C@H]1C[C@H]3[C@H](N(C)C)C(=O)C(C(N)=O)=C(O)[C@@]3(O)C(=O)C1=C2O', 'normalized growth', 0.974),
  ('CC(=O)Oc1cccc(O)c1', 'normalized growth', 1.02),
  ('C/C1=C\CC(C)(C)/C=C/CC2(C)OC2CC1 (stereo not given)', 'normalized growth', 1.01),
  ('CC1=CC(=O)c2ccccc2C1=O', 'normalized growth', 0.294),
  ('CC(=O)Oc1ccc(O)cc1', 'normalized growth', 1.02),
  ('CC(=O)Oc1ccc(/C=C/c2cc(OC(C)=O)cc(OC(C)=O)c2)cc1', 'normalized growth', 0.996),
  ('CC(C)=CCCC(C)C1CC[C@@]2(C)C3=C(CC[C@]12C)C1(C)CC[C@H](O)C(C)(C)C1CC3 (stereo not given in full)', 'normalized growth', 0.875),
  ('CC(C)CCCC(C)[C@H]1CCC2C3CC[C@@H]4C[C@H](O)CC[C@]4(C)C3CC[C@@]21C (stereo not given in full)', 'normalized growth', 1),
  ('CC(C)CCCC(C)[C@H]1CCC2C3C(=O)C=C4C[C@@H](O)CC[C@]4(C)C3CC[C@@]21C (stereo not given in full)', 'normalized growth', 1.04),
  ('CC(C)CCCC(C)[C@H]1CCC2C3CC=C4C[C@@H](O)CC[C@]4(C)C3CC[C@@]21C (stereo not given in full)', 'normalized growth', 0.996),
  ('CC(C)=CCc1c2c(c3occ(-c4ccc(O)cc4)c(=O)c3c1O)C=CC(C)(C)O2', 'normalized growth', 1),
  ('Cc1cc(=O)[nH]c(=S)[nH]1', 'normalized growth', 0.991),
  ('O=C(O)c1cc(O)c2c(c1)[C@@H]([C@H]1c3cc(C(=O)O)cc(O)c3C(=O)c3c(O[C@H]4O[C@H](CO)[C@@H](O)[C@H](O)[C@H]4O)cccc31)c1cccc(O[C@H]3O[C@H](CO)[C@@H](O)[C@H](O)[C@H]3O)c1C2=O', 'normalized growth', 0.993),
  ('NC(Cn1ccc(=O)c(O)c1)C(=O)O (stereo not given)', 'normalized growth', 1.01),
  ('CC(C)=CC1C(C(=O)O)C1(C)C (stereo not given)', 'normalized growth', 0.991),
  ('CC(C)=CCc1c2c(c3occ(-c4ccc(O)c(O)c4)c(=O)c3c1O)C=CC(C)(C)O2', 'normalized growth', 0.93),
  ('CC(C)CCCC(C)C1CC[C@@]2(C)C3=C(CC[C@]12C)[C@@]1(C)CC[C@H](O)C(C)(C)C1CC3 (stereo not given in full)', 'normalized growth', 0.993),
  ('CN(C)C1C(=O)C(C(N)=O)=C(O)C2(O)C(=O)C3=C(O)c4c(O)ccc(Cl)c4C(C)(O)C3CC12 (stereo not given)', 'normalized growth', 0.99),
  ('CS(=O)(=O)Nc1ccc([N+](=O)[O-])cc1Oc1ccccc1', 'normalized growth', 0.978),
  ('CC(CCc1ccccc1)NCC(O)c1ccc(O)c(C(N)=O)c1 (stereo not given)', 'normalized growth', 1.01),
  ('C[n+]1ccccc1/C=N/O', 'normalized growth', 1.02),
  ('CC(C)CCCC(C)C1CCC2C3CC[C@H]4C[C@@H](O)CC[C@]4(C)C3CC[C@]12C (stereo not given in full)', 'normalized growth', 1.02),
  ('C=C1c2cccc(O)c2C(O)=C2C(=O)[C@]3(O)C(O)=C(C(N)=O)C(=O)[C@@H](N(C)C)[C@@H]3[C@@H](O)[C@H]12', 'normalized growth', 0.993),
  ('NC1=NCCN1CC(=O)O', 'normalized growth', 0.997),
  ('COc1cc(C/C=C/c2ccccc2)c(OC)cc1O', 'normalized growth', 0.994),
  ('CN(C)[C@@H]1C(=O)C(C(N)=O)=C(O)[C@@]2(O)C(=O)C3=C(O)c4c(O)cccc4[C@@](C)(O)[C@H]3[C@H](O)[C@@H]12', 'normalized growth', 0.984),
  ('CC(N=C(NC#N)Nc1ccncc1)C(C)(C)C (stereo not given)', 'normalized growth', 1.01),
  ('CC(=O)O[C@H]1CC[C@@]2(C)C(=CC(=O)C3C4CCC(C(C)CCCC(C)C)[C@@]4(C)CCC32)C1 (stereo not given in full)', 'normalized growth', 1.02),
  ('O=P1(N(CCCl)CCCl)NCCCO1 (stereo not given)', 'normalized growth', 1.03),
  ('C[C@H](CCC(=O)O)[C@H]1CCC2C3C(=O)CC4CC(=O)CC[C@]4(C)C3CC(=O)[C@@]21C (stereo not given in full)', 'normalized growth', 1.01);

----------
# experimentalProtocol: chemical genetic growth profiling, strain panel (AID 1159580);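 note: tested at 20 µM; growth read once vehicle control cultures reached saturation at 30 °C; 1 = growth at the plate median or of vehicle wells; lower values mean less growth of the strain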
# experimentalParameters: S. cerevisiae deletion strains, growth OD, locus YJR075W, strain HOC1, hits give low values
Out of some 5,500 compounds screened, about 2,000 (36%) were called active. Inconclusive results (about 18%) are left out. The list shows a part of the results.
measurementName: normalized growth

INSERT INTO measurements (compound, measurementname, reportedmeasurement) VALUES
  ('Fc1cc(F)cc(COc2cc(Cl)cc(Cl)c2)c1', 'normalized growth', 0.913),
  ('NCC(=O)c1ccccc1', 'normalized growth', 1.05),
  ('O=C1NC(O)=NC1(c1ccccc1)c1ccccc1', 'normalized growth', 1.01),
  ('CC(=O)O[C@H]1CC[C@@]2(C)C(=CC(=O)C3C4CCC(C(C)CCCC(C)C)[C@@]4(C)CCC32)C1 (stereo not given in full)', 'normalized growth', 1),
  ('c1ccc(-c2csc(-c3ccncc3)n2)cc1', 'normalized growth', 0.987),
  ('CNCCCC1c2ccccc2C=Cc2ccccc21', 'normalized growth', 0.985),
  ('Cn1ncc(C(=O)O/N=C(/N)c2cc(C(F)(F)F)cc(C(F)(F)F)c2)c1-n1cccc1', 'normalized growth', 0.972),
  ('CCOC(=O)CSc1nc2cc(C(F)(F)F)cnc2n1C', 'normalized growth', 0.997),
  ('CC(C)c1ccc2c(c1)CCC1[C@](C)(CN)CCC[C@]21C (stereo not given in full)', 'normalized growth', 0.392),
  ('O=C1NC2CC2N1C(=O)OCc1ccccc1 (stereo not given)', 'normalized growth', 1.01),
  ('Cc1ccc2c(c1)C1(C)CCCC(C)(C(=O)O)C1CC2 (stereo not given)', 'normalized growth', 1.01),
  ('O=S(=O)(Oc1ccc(OCc2ccccc2)cc1)c1cc(Cl)cc(Cl)c1', 'normalized growth', 1.01),
  ('Cc1cccc(C)c1OCC(N)C(C)C (stereo not given)', 'normalized growth', 1.01),
  ('CN(C)CCC(c1ccc(Cl)cc1)c1ccccn1 (stereo not given)', 'normalized growth', 0.991),
  ('C/C(=C\c1ccc(C(=O)O)cc1)c1ccc2c(c1)C(C)(C)CCC2(C)C', 'normalized growth', 1.01),
  ('Cn1c(CSc2ccccc2)n[nH]c1=S', 'normalized growth', 0.987),
  ('NS(=O)(=O)c1cc2c(cc1Cl)NC(CSCc1ccccc1)=NS2(=O)=O', 'normalized growth', 0.971),
  ('O=C1c2ccccc2-c2n[nH]c3cccc1c23', 'normalized growth', 0.827),
  ('CCOC(CN(c1ccc(F)cc1)S(=O)(=O)c1ccc(F)cc1F)OCC', 'normalized growth', 0.981),
  ('OC(c1ccccc1)(c1ccccc1)c1ccncc1', 'normalized growth', 0.984),
  ('COc1cc(CC(C)N)c(OC)cc1I (stereo not given)', 'normalized growth', 1.01),
  ('c1ccc(-c2nc(-c3cccs3)cs2)cc1', 'normalized growth', 0.707),
  ('Nc1ccc(C(=O)O)cc1', 'normalized growth', 1.01),
  ('Cc1scc2c1N(C(=O)CN1CCN(C)CC1)c1ccccc1NC2=O', 'normalized growth', 0.979),
  ('CCN1CCCC1CNC(=O)c1cc(S(N)(=O)=O)ccc1OC (stereo not given)', 'normalized growth', 0.973);
